Test system: ATP;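 further: ATP exposure 15 min at 22 °C before imaging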
METHOD NOTES: switch fluorescence ratio, 500 uM ATP over buffer (Cy3 cluster intensity, sum of 5 cycles each) (fold (ratio)); higher = stronger signal-on switching upon ATP binding; sequences stand for … in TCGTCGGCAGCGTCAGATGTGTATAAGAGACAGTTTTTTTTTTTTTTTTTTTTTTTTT…TC
MEASUREMENT SETUP: aptamer strand: ATP DNA aptamer (quencher-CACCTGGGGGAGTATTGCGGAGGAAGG + anchor), 100 nM annealed; ATP concentration: 500 uM

SEQ TEXT: CTAGATCGAT
switch fluorescence ratio: 0.992
--
SEQ TEXT: AGGGAAGTTG
switch fluorescence ratio: 1.01
--
SEQ TEXT: CATGGAGATT
switch fluorescence ratio: 0.987
--
SEQ TEXT: AACGGGTTAC
switch fluorescence ratio: 1.14
--
SEQ TEXT: TGGTGTTGCT
switch fluorescence ratio: 0.98
--
SEQ TEXT: ACCATGGGAA
switch fluorescence ratio: 1.04
--
SEQ TEXT: GGTGTTTGTA
switch fluorescence ratio: 1
--
SEQ TEXT: CGTGGGAGGT
switch fluorescence ratio: 0.987
--
SEQ TEXT: ATATTGTTGG
switch fluorescence ratio: 0.972
--
SEQ TEXT: TAATTTGAAA
switch fluorescence ratio: 1.03
--
SEQ TEXT: TTTAATGTAC
switch fluorescence ratio: 1.36
--
SEQ TEXT: GGAAGAGGGG
switch fluorescence ratio: 0.991
--
SEQ TEXT: TTAAGTGGCT
switch fluorescence ratio: 1.02
--
SEQ TEXT: GTTGGAGGTT
switch fluorescence ratio: 0.992
--
SEQ TEXT: GTTGAAGGCA
switch fluorescence ratio: 1.01
--
SEQ TEXT: TTGTTAGAAA
switch fluorescence ratio: 1
--
SEQ TEXT: CCGGGCGTA
switch fluorescence ratio: 1.15
--
SEQ TEXT: ATACTTATTG
switch fluorescence ratio: 0.996
--
SEQ TEXT: GGGGTTTGG
switch fluorescence ratio: 1
--
SEQ TEXT: CAGTGCGTGG
switch fluorescence ratio: 0.988
--
SEQ TEXT: CGCTGTCAGC
switch fluorescence ratio: 1
--
SEQ TEXT: AAAATCGCGG
switch fluorescence ratio: 0.984
--
SEQ TEXT: TGGAACAGGG
switch fluorescence ratio: 1.03
--
SEQ TEXT: GGATAGAGCT
switch fluorescence ratio: 1
--
SEQ TEXT: CTGCGTGATG
switch fluorescence ratio: 1.03
--
SEQ TEXT: CAGGGGTATT
switch fluorescence ratio: 1.32
--
SEQ TEXT: GCACGCAACT
switch fluorescence ratio: 1.32
--
SEQ TEXT: TCGGCCATGG
switch fluorescence ratio: 0.985
--
SEQ TEXT: ACGACTTTAG
switch fluorescence ratio: 1.02
--
SEQ TEXT: GCTGATGTAT
switch fluorescence ratio: 0.999
--
SEQ TEXT: TTAGCTCTA
switch fluorescence ratio: 1.01
--
SEQ TEXT: CAACTAGTGG
switch fluorescence ratio: 0.978
--
SEQ TEXT: TTTACACAGG
switch fluorescence ratio: 1.17
--
SEQ TEXT: GCGCCTGTAT
switch fluorescence ratio: 0.986
--
SEQ TEXT: AGGGGCTTCT
switch fluorescence ratio: 1.06
--
SEQ TEXT: TTTGTTAGAT
switch fluorescence ratio: 0.993
--
SEQ TEXT: GGTTTTGGCC
switch fluorescence ratio: 1.02
--
SEQ TEXT: CATTATAGCG
switch fluorescence ratio: 0.991
--
SEQ TEXT: TGAGGTAGGG
switch fluorescence ratio: 0.976
--
SEQ TEXT: GAGTTTGCGT
switch fluorescence ratio: 1.03
--
SEQ TEXT: TATATGAGGG
switch fluorescence ratio: 1
--
SEQ TEXT: TGGGTAATGC
switch fluorescence ratio: 1.27
--
SEQ TEXT: GGGGTCGGTA
switch fluorescence ratio: 0.989
--
SEQ TEXT: TTTTGAGTAG
switch fluorescence ratio: 0.987
--
SEQ TEXT: TCGTATCGTA
switch fluorescence ratio: 0.975
--
SEQ TEXT: ATGGCTGGCG
switch fluorescence ratio: 1.07
--
SEQ TEXT: AGTACTAAAG
switch fluorescence ratio: 1.01
--
SEQ TEXT: TAGCGGTGTC
switch fluorescence ratio: 1.07
--
SEQ TEXT: CGTGACTAAA
switch fluorescence ratio: 0.989
--
SEQ TEXT: TTTGTGTAAA
switch fluorescence ratio: 1
--
SEQ TEXT: CATGGGAGTT
switch fluorescence ratio: 0.978
--
SEQ TEXT: TTTAGTAGCT
switch fluorescence ratio: 1
--
SEQ TEXT: AAGCTACTGG
switch fluorescence ratio: 1.05
--
SEQ TEXT: GTAATAAATT
switch fluorescence ratio: 1.02
--
SEQ TEXT: CAATCATGTC
switch fluorescence ratio: 1.04
--
SEQ TEXT: CTAATGGTTT
switch fluorescence ratio: 0.982
--
SEQ TEXT: GGGGAGAATG
switch fluorescence ratio: 0.98
--
SEQ TEXT: TTAGACGGGG
switch fluorescence ratio: 1
--
SEQ TEXT: TGGGCTATTT
switch fluorescence ratio: 0.964
--
SEQ TEXT: TTGGGGAAGG
switch fluorescence ratio: 1.04
--
SEQ TEXT: GTGAGGATTT
switch fluorescence ratio: 0.986
--
SEQ TEXT: CTCGATAGTA
switch fluorescence ratio: 0.974
--
SEQ TEXT: ACGGGGGCGG
switch fluorescence ratio: 1
--
SEQ TEXT: TAGAAACTTT
switch fluorescence ratio: 1.1
--
SEQ TEXT: GAAGTAGCGG
switch fluorescence ratio: 1.02
--
SEQ TEXT: GGTCTTGCGA
switch fluorescence ratio: 0.976
--
SEQ TEXT: GCCTGGAAAT
switch fluorescence ratio: 1
--
SEQ TEXT: AGGATTAAGG
switch fluorescence ratio: 0.992
--
SEQ TEXT: ATGGATATAT
switch fluorescence ratio: 0.995
--
SEQ TEXT: AGTTGCCTG
switch fluorescence ratio: 0.997
--
SEQ TEXT: TAGCGCTCTA
switch fluorescence ratio: 0.999
--
SEQ TEXT: AGACGTTTTT
switch fluorescence ratio: 1
--
SEQ TEXT: CTAGGTTTTG
switch fluorescence ratio: 0.995
--
SEQ TEXT: AGGGCGGTGT
switch fluorescence ratio: 0.991
--
SEQ TEXT: GGACTCCCGG
switch fluorescence ratio: 0.99
--
SEQ TEXT: TCGCGATCAG
switch fluorescence ratio: 1.12
--
SEQ TEXT: AGAGGTCTGT
switch fluorescence ratio: 0.986
--
SEQ TEXT: GGGGGCAAGA
switch fluorescence ratio: 0.999
--
SEQ TEXT: GCGGCTGGGG
switch fluorescence ratio: 1.01
--
SEQ TEXT: TCGTACAGTT
switch fluorescence ratio: 1.03
--
SEQ TEXT: AGATTTGAGC
switch fluorescence ratio: 0.972
--
SEQ TEXT: CAGGGTGATG
switch fluorescence ratio: 0.985
--
SEQ TEXT: TTTTCGTGAA
switch fluorescence ratio: 1.01
--
SEQ TEXT: ATGTTTTTCT
switch fluorescence ratio: 0.963
--
SEQ TEXT: CCGGAAGAGA
switch fluorescence ratio: 1.09
--
SEQ TEXT: TTAGTAGTGG
switch fluorescence ratio: 0.974
